Biological target: EGFR kinase (Homo sapiens (Human), UniProt P00533)
Sequence (P00533 712-979): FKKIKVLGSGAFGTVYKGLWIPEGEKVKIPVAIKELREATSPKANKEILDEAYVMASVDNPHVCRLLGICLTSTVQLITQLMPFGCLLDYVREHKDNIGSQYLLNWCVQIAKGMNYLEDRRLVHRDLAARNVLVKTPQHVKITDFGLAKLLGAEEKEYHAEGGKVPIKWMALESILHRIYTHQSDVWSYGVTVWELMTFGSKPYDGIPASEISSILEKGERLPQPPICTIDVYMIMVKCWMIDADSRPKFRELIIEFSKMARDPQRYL
Assay: EGFR kinase assay
Type: biochemical
readout: IC50 (nM)

COc1cc(-c2ccc3ncnc(Nc4cc(O)ccc4F)c3c2)ccc1O [Compound 58] = 14.9

a = COc1cc(-c2ccc3ncnc(Nc4cccc(O)c4)c3c2)ccc1O [Compound 8]
b = COc1cc(-c2ccc3ncnc(Nc4ccc(O)cc4)c3c2)ccc1O [Compound 19]
Q. Input pair: a , b . Output: entry with lower IC50. Which one? Tell me its label.
A. a
(a: 18.7 nM, b: 56.4 nM)

---

Biological target: B-Raf (Homo sapiens (Human), UniProt P15056)
Sequence (P15056 whole entry): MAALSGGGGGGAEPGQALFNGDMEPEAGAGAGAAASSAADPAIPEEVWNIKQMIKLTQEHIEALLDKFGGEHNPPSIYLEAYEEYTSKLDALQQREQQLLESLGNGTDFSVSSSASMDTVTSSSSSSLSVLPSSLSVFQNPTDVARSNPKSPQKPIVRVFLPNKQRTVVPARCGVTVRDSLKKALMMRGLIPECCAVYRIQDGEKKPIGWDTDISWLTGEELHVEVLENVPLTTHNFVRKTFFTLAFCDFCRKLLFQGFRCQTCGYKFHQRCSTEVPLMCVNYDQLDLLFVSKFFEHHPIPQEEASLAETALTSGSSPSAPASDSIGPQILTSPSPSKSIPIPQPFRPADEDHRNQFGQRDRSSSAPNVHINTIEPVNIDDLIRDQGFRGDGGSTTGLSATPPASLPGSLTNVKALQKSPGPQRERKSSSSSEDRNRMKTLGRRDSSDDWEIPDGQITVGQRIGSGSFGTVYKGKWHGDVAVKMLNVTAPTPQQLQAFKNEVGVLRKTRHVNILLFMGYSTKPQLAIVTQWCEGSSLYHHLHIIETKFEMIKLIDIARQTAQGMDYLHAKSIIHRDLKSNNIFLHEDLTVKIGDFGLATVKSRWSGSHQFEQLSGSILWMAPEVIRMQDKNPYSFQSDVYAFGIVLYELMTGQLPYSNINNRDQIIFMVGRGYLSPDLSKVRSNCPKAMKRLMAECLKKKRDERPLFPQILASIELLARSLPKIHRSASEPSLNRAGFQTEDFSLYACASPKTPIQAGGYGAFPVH
Assay: Raf kinase assay (B-Raf), [33P] incorporation into MEK1(K97R)
Type: biochemical
Conditions: 1.0 μM compound; read-out: B-Raf inhibition at 1.0 μM
readout: inhibition at 1 µM (%)

COc1cc(-c2ccc3ncnc(Nc4ccc(F)cc4F)c3c2)ccc1O [Compound 20] = 55.3
COc1cc(-c2ccc3ncnc(Nc4ccc(Cl)c(O)c4)c3c2)ccc1O [Compound 157] = 92
O=S(=O)(Nc1ccc(-c2ccc3ncnc(Nc4ccccc4)c3c2)cc1)c1ccccc1 [Compound 28] = 30.5
O=[N+]([O-])c1cccc(-c2ccc3ncnc(Nc4cccc5[nH]ncc45)c3c2)c1 [Compound 92] = 66.3
COc1cccc(-c2ccc3nccc(Nc4cccc5[nH]ncc45)c3c2)c1 [Compound 123] = 80.3
COc1cccc(-c2ccc3ncnc(Nc4cccc5[nH]ncc45)c3c2)c1 [Compound 144] = 62.6

I = Oc1cc(Nc2ncnc3ccc(-c4ccc(Cl)cc4)cc23)c(F)cc1F [Compound 160]
II = COc1cc(-c2ccc3ncnc(Nc4ccc5nc[nH]c5c4)c3c2)ccc1O [Compound 54]
Q. From the recorded data, which exceeds the other in inhibition at 1 µM: I or II ? I would appreciate it if you answered with the label of your choice.
A. I
(I: 97.9%, II: 56.2%)

P = COc1cc(-c2ccc3ncnc(Nc4cccc([N+](=O)[O-])c4)c3c2)ccc1O [Compound 36]
Q = COc1cc(-c2ccc3ncnc(Nc4ccc5cc[nH]c5c4)c3c2)ccc1O [Compound 40]
Q. From the items above, decide which of P and Q has the lower inhibition at 1 µM reading. # answer = label of selected item
A. Q
(Q: 32.2%, P: 76.3%)

A = COc1ccc(-c2ccc3nccc(Nc4cccc5[nH]ncc45)c3c2)cc1F [Compound 112]
B = COc1cc(-c2cc3c(Nc4ccccc4)ncnc3cc2OC)ccc1O [Compound 30]
Q. Please tell me which of the two, A or B , has the higher reported inhibition at 1 µM value. I would appreciate it if you answered with the label of your choice.
A. A
(A: 80.2%, B: 10%)

A = FC(F)(F)c1cccc(-c2ccc3ncnc(Nc4cccc5[nH]ncc45)c3c2)c1 [Compound 87]
B = COc1cc(-c2ccc3ncnc(Nc4cc(NS(C)(=O)=O)ccc4Cl)c3c2)ccc1O [Compound 139]
C = C#Cc1cccc(Nc2ncnc3ccc(-c4ccc(OC)cc4)cc23)c1 [Compound 151]
Q. List the 3 entries from lowest inhibition at 1 µM to highest inhibition at 1 µM value. I would appreciate it if you listed the labels in the requested order.
A. C, B, A

---

Molecular target: B-Raf (V600E) (Homo sapiens (Human), UniProt P15056, V600E)
Sequence (P15056 whole entry V600E): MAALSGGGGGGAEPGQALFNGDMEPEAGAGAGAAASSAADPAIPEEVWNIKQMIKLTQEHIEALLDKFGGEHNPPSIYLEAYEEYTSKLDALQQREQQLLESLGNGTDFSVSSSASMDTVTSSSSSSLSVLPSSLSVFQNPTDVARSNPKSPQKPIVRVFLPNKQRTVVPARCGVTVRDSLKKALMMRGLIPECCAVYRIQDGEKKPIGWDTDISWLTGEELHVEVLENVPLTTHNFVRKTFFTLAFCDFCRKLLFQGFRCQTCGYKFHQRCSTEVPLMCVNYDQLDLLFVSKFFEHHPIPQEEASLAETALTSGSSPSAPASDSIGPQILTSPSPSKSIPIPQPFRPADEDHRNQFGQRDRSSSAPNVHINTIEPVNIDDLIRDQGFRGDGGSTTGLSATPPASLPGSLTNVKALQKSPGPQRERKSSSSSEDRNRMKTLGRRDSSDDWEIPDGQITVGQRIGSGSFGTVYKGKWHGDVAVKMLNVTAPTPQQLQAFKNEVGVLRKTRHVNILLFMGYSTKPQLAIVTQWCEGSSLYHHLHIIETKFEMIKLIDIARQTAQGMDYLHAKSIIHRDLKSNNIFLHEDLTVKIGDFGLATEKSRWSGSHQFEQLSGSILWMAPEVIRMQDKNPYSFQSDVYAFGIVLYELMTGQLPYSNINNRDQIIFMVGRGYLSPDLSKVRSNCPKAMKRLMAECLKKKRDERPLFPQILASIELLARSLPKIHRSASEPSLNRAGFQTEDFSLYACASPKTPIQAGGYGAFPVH
Experiment: Raf kinase assay (B-Raf (V600E)), [33P] incorporation into MEK1(K97R)
Type: biochemical
readout: IC50 (nM)

Solved entries:
COc1cc(-c2ccc3ncnc(Nc4cc(O)ccc4C)c3c2)ccc1O [Compound 154] = 70.9
COc1cc(-c2ccc3ncnc(Nc4cccc5[nH]nnc45)c3c2)ccc1O [Compound 82] = 702
O=[N+]([O-])c1cccc(-c2ccc3ncnc(Nc4cccc5[nH]ncc45)c3c2)c1 [Compound 92] = 535
CS(=O)(=O)Nc1cccc(-c2ccc3ncnc(Nc4cccc(O)c4)c3c2)c1 [Compound 72] = 90

I = Fc1ccc(-c2ccc3ncnc(Nc4cccc5[nH]ncc45)c3c2)cc1Cl [Compound 79]
II = COc1cc(-c2ccc3ncnc(Nc4cccc(O)c4Cl)c3c2)ccc1O [Compound 60]
III = COc1ccc(-c2ccc3ncnc(Nc4cccc(O)c4)c3c2)cc1 [Compound 64]
IV = COc1cc(-c2ccc3ncnc(Nc4cc(O)c(F)cc4F)c3c2)ccc1O [Compound 158]
V = COc1cc(-c2ccc3ncnc(Nc4ccc(F)cc4)c3c2)ccc1O [Compound 15]
Q. Ranking field: IC50; order: falling. Reply with the labels, ordered as the question asks.
A. V, I, III, II, IV
(V: 1020 nM, I: 557 nM, III: 105 nM, II: 56.5 nM, IV: 7.1 nM)
